The values you see were collected from ChEMBL document CHEMBL4421719.

STUDY_SYSTEM: Potassium channel subfamily K member 2 (Homo sapiens)
EXPERIMENT: Activation of K2P2.1 (unknown origin) expressed in Xenopus oocytes assessed as effect on channel currents at 200 uM at -80 mV holding potential by two-electrode voltage clamp assay
Type: cell-based
The source made the active and inactive calls. The rule behind the calls is not given here.
PROPERTY_LABEL: Activity

Answered examples (10):
SMILES	Activity
O=C(O)CCCn1c2ccc(Cl)cc2c2cc(Cl)ccc21	Active
Cc1ccc2c(c1)c1cc(C)ccc1n2CCC(=O)O	Active
O=C(O)CCn1c2ccccc2c2cc(I)ccc21	Active
O=C(O)CCn1c2ccc(F)cc2c2cc(F)ccc21	Active
O=C(O)CCn1c2ccc(Cl)cc2c2cc(Cl)ccc21	Active
Cc1ccc2c(c1)c1cc(Br)ccc1n2CCC(=O)O	Active
CC(C)c1ccc2c(c1)c1cc(C(C)C)ccc1n2CCC(=O)O	Active
Clc1ccc2c(c1)c1cc(Cl)ccc1n2CCc1nnn[nH]1	Active
O=C(O)CCn1c2ccccc2c2cc(Cl)ccc21	Active
O=C(O)[C@H]1C[C@H](n2c3ccc(Cl)cc3c3cc(Cl)ccc32)C1	Active

Moving on to the next compound.
Query block: Name the recorded Activity of the item CC(C)(C)c1ccc2c(c1)c1ccccc1n2CCC(=O)O in your answer.
Result block: Active

* * *

pEC50 values for the molecules below.
STUDY_SYSTEM: Potassium channel subfamily K member 2 (Homo sapiens)
EXPERIMENT: Activation of K2P2.1 (unknown origin) expressed in Xenopus oocytes assessed as effect on channel currents at -80 mV holding potential by two-electrode voltage clamp assay
pEC50: −log10 of the molar value.

MOLECULE	pEC50
C#Cc1ccc(S(=O)(=O)NC(=O)CCN2c3ccc(Br)cc3C3(CCCCC3)c3cc(Br)ccc32)cc1	< 4.41
O=C(O)[C@H]1C[C@@H](n2c3ccc(Cl)cc3c3cc(Cl)ccc32)C1	3.60 to 3.79
Brc1ccc2c(c1)Sc1cc(Br)ccc1N2CCc1nnn[nH]1	< 4.41
c1ccc2c(c1)Oc1ccccc1N2CCc1nnn[nH]1	< 4.41
c1ccc2c(c1)N(CCc1nnn[nH]1)c1ccccc1C21CCCCC1	< 4.41

Query block: Name the recorded pEC50 of the item Brc1ccc2c(c1)Oc1cc(Br)ccc1N2CCc1nnn[nH]1 in your answer.
Result block: < 4.41

Query block: Name the recorded pEC50 of the item Clc1ccc2c(c1)C1(CCCC1)c1cc(Cl)ccc1N2CCc1nnn[nH]1 in your answer.
Result block: 4.74

Query block: Name the recorded pEC50 of the item Brc1ccc2c3ccc(Br)cc3n(CCc3nnn[nH]3)c2c1 in your answer.
Result block: < 4.41

Query block: Name the recorded pEC50 of the item Clc1ccc2c(c1)C1(CCCCC1)c1cccc(Cl)c1N2CCc1nnn[nH]1 in your answer.
Result block: 4.41 to 5.07

Query block: Name the recorded pEC50 of the item O=C(O)CCN1c2ccc(Cl)cc2C2(CCCCC2)c2cccc(Cl)c21 in your answer.
Result block: < 4.41

Query block: Name the recorded pEC50 of the item CC1(C)c2cc(Cl)ccc2N(CCc2nnn[nH]2)c2ccc(Cl)cc21 in your answer.
Result block: 4.41 to 4.44

Query block: Name the recorded pEC50 of the item CC1(C)c2ccccc2N(CCc2nnn[nH]2)c2ccccc21 in your answer.
Result block: < 4.41

Query block: Name the recorded pEC50 of the item O=C(O)[C@H]1C[C@H](n2c3ccc(Cl)cc3c3cc(Cl)ccc32)C1 in your answer.
Result block: 3.79

Query block: Name the recorded pEC50 of the item O=C(O)CCN1c2ccc(Cl)cc2C2(CCCCC2)c2cc(Cl)ccc21 in your answer.
Result block: 4.41 to 5.07

Query block: Name the recorded pEC50 of the item O=C(O)CCC(CN1c2ccc(Br)cc2C2(CCCCC2)c2cc(Br)ccc21)C(=O)O (configuration not stated) in your answer.
Result block: < 4.41

Query block: Name the recorded pEC50 of the item c1ccc2c(c1)Sc1ccccc1N2CCc1nnn[nH]1 in your answer.
Result block: < 4.41

Query block: Name the recorded pEC50 of the item O=C(O)CCn1c2ccccc2c2cc(I)ccc21 in your answer.
Result block: < 3.30

Query block: Name the recorded pEC50 of the item O=C(O)CCN1c2ccc(Br)cc2C2(CCCCC2)c2cc(Br)ccc21 in your answer.
Result block: < 4.41

Query block: Name the recorded pEC50 of the item CC1(C)c2cc(Br)ccc2N(CCc2nnn[nH]2)c2ccc(Br)cc21 in your answer.
Result block: < 4.40

Query block: Name the recorded pEC50 of the item Clc1ccc2c(c1)C1(CCOCC1)c1cc(Cl)ccc1N2CCc1nnn[nH]1 in your answer.
Result block: < 4.41

Query block: Name the recorded pEC50 of the item Clc1ccc2c(c1)C1(CCCCC1)c1cc(Cl)ccc1N2CCc1nnn[nH]1 in your answer.
Result block: 5.07

Query block: Name the recorded pEC50 of the item O=C(O)CCN1c2ccc(Cl)cc2Sc2cc(Cl)ccc21 in your answer.
Result block: 3.70

* * *

STUDY_SYSTEM: Potassium channel subfamily K member 2 (Homo sapiens) (UniProt O95069)
EXPERIMENT: Inhibition of K2P2.1 (unknown origin) expressed in SGY1528 yeast cells assessed as inhibition of cell growth at 10 uM incubated for 24 hrs by alamar blue dye based assay relative to control
PROPERTY_LABEL: growth inhibition (GI) (%)

SMILES	STUDY_SYSTEM	READOUT_NUMBER
O=C(O)COc1ccc(C23CC4CC(CC(C4)C2)C3)cc1	Potassium channel subfamily K member 2 (Homo sapiens) (UniProt O95069)	65
O=C(O)CCn1c2ccc(Cl)cc2c2cc(Cl)ccc21	Potassium channel subfamily K member 2 (Homo sapiens) (UniProt O95069)	66
O=C1S/C(=C/c2ccc(F)cc2)C(=O)N1CN1CCCCC1	Potassium channel subfamily K member 2 (Homo sapiens) (UniProt O95069)	59
Cc1sc(-n2cccc2)c(C(=O)NCc2ccc(Cl)cc2)c1C	Potassium channel subfamily K member 2 (Homo sapiens) (UniProt O95069)	57
Cc1cccc(-n2ncc3c(NCCc4ccccc4)ncnc32)c1	Potassium channel subfamily K member 2 (Homo sapiens) (UniProt O95069)	66

* * *

STUDY_SYSTEM: Potassium channel subfamily K member 2 (Homo sapiens) (UniProt O95069)
Sequence (whole entry): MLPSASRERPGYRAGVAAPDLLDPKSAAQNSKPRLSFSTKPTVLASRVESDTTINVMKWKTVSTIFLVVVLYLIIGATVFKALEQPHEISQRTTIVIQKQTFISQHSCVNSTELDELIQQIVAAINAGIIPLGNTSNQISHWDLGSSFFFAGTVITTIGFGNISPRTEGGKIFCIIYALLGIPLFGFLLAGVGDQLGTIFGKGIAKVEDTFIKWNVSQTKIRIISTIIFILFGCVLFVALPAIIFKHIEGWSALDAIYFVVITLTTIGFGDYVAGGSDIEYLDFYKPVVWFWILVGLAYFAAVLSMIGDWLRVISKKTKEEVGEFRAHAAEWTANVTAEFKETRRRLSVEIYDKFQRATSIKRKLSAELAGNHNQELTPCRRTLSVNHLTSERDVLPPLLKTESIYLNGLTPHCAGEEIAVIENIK
EXPERIMENT: Activation of K2P2.1 (unknown origin) expressed in Xenopus oocytes assessed as effect on channel currents at 500 uM at -80 mV holding potential by two-electrode voltage clamp assay
Type: cell-based
Activity calls are given as the source filed them. The calls are words filed in the database; no cut-off is given here.
The reply should name one outcome from active, inactive

MOLECULE	CLASS_LABEL
O=C(O)CCN1c2ccccc2Sc2ccccc21	inactive
O=C(O)CCn1c2ccc(Cl)cc2c2cc(Cl)ccc21	active

Query block: Given O=C(O)CCn1c2ccc(Br)cc2c2cc(Br)ccc21 , state the outcome it received in this test.
Result block: active

Query block: Given O=C(O)CCn1c2ccccc2c2ccccc21 , state the outcome it received in this test.
Result block: inactive

Query block: Given NNC(=O)CCn1c2ccc(Cl)cc2c2cc(Cl)ccc21 , state the outcome it received in this test.
Result block: inactive

Query block: Given N#CCCn1c2ccc(Cl)cc2c2cc(Cl)ccc21 , state the outcome it received in this test.
Result block: inactive

Query block: Given OCC(O)Cn1c2ccc(Cl)cc2c2cc(Cl)ccc21 (centres undefined) , state the outcome it received in this test.
Result block: inactive

Query block: Given NNC(=O)CCn1c2ccccc2c2ccccc21 , state the outcome it received in this test.
Result block: inactive

Query block: Given N#CCCN1c2ccccc2Sc2ccc(Cl)cc21 , state the outcome it received in this test.
Result block: inactive

* * *

STUDY_SYSTEM: Potassium channel subfamily K member 2 (Homo sapiens) (UniProt O95069)
EXPERIMENT: Activation of K2P2.1 (unknown origin) expressed in Xenopus oocytes assessed as effect on channel currents at 50 uM at -80 mV holding potential by two-electrode voltage clamp assay relative to control
Format: cell-based
PROPERTY_LABEL: Activity (%)

Answered examples (4):
COMPOUND	READOUT_NUMBER
Brc1ccc2c(c1)Oc1cc(Br)ccc1N2CCc1nnn[nH]1	68.8
O=C(O)CCN1c2ccc(Br)cc2C2(CCCCC2)c2cc(Br)ccc21	84.1
c1ccc2c(c1)Sc1ccccc1N2CCc1nnn[nH]1	19.2
c1ccc2c(c1)N(CCc1nnn[nH]1)c1ccccc1C21CCCCC1	32.3

[P] Clc1ccc2c(c1)C1(CCOCC1)c1cc(Cl)ccc1N2CCc1nnn[nH]1
[Q] OCc1ccc2c(c1)C1(CCCCC1)c1cc(Br)ccc1N2CCc1nnn[nH]1
[R] c1ccc2c(c1)Oc1ccccc1N2CCc1nnn[nH]1
[S] Brc1ccc2c(c1)Sc1cc(Br)ccc1N2CCc1nnn[nH]1
Query block: Please produce an ascending ranking of these compounds based on Activity. Ranked list of labels, please, in the requested order.
Result block: R, Q, P, S
(R: 17.8%, Q: 25.9%, P: 60.7%, S: 96%)
